The entries below come with measured pIC50 values attached.
Target: Zap-70 (Homo sapiens)
Construct: Kinases are expressed as either kinase domains or full length constructs; made in house
Sequence (P43403 whole entry, species assumed, the tested form may be a part): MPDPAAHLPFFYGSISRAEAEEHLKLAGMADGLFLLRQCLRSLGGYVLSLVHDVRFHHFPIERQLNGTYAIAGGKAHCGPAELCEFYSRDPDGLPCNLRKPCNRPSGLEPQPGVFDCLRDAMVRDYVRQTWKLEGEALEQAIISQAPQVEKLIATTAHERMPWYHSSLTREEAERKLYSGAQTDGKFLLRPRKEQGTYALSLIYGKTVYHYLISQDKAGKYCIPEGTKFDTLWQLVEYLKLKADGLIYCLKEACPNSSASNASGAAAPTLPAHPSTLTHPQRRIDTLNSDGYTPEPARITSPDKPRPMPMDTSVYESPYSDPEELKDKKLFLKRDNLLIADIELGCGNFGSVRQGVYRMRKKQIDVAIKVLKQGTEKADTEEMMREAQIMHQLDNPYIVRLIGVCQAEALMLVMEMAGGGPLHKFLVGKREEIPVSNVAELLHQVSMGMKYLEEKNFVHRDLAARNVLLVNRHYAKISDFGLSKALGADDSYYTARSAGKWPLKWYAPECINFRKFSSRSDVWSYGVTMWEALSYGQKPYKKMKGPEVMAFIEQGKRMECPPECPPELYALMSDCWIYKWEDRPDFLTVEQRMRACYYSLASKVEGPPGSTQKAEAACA
Assay: Kinase inhibition assay (33P transfer), Zap-70
Type: biochemical
Settings: read-out: Zap-1
Source text: The inhibitor compounds described herein are screened in the following manner. […] Kinases are expressed as either kinase domains or full length constructs fused to glutathione S-transferase (GST) or polyHistidine tagged fusion proteins in either E. colior Baculovirus-High Five expression systems. […]
pIC50: −log10 of the molar value.

MOLECULE	SYSTEM_NAME	pIC50
CN(c1cccc(Cl)c1)c1ncnc(Nc2cccc(CC(=O)O)c2)n1 [Compound 706]	Zap-70 (Homo sapiens)	< 4.91
COc1cc(Nc2ncnc(Nc3cc(Cl)ccc3C)n2)cc(OC)c1OC [Compound 625]	Zap-70 (Homo sapiens)	< 4.95
Nc1nc2ccccc2n1-c1ncnc(Nc2ccc(OC(F)(F)F)cc2)n1 [Compound 647]	Zap-70 (Homo sapiens)	< 4.93
COc1ccc(Nc2ncnc(NCCCN3CCN(C)CC3)n2)cc1OC [Compound 786]	Zap-70 (Homo sapiens)	< 4.94
COc1cc(Nc2ncnc(Nc3cccc(CC(=O)O)c3)n2)cc(OC)c1OC [Compound 624]	Zap-70 (Homo sapiens)	< 4.96
COc1cc(Nc2ncnc(-n3c(=O)[nH]c4ccccc43)n2)cc(OC)c1OCCN1CCOCC1 [Compound 1040]	Zap-70 (Homo sapiens)	< 5.04
COC(=O)Cc1cccc(Nc2ncnc(-n3c(NCc4ccccc4)nc4ccccc43)n2)c1 [Compound 545]	Zap-70 (Homo sapiens)	< 5.01
O=C(O)Cc1cccc(Nc2ncnc(-n3c(NCc4ccccn4)nc4ccccc43)n2)c1 [Compound 533]	Zap-70 (Homo sapiens)	< 5.00
CCOC(=O)C(Cc1cccc(Nc2ncnc(Nc3cc(-c4ccco4)n[nH]3)n2)c1)(NC(C)=O)C(=O)OCC [Compound 481]	Zap-70 (Homo sapiens)	< 5.09
COc1cc(Nc2ncnc(-n3c(NCc4ccccc4F)nc4ccccc43)n2)cc(OC)c1OC [Compound 512]	Zap-70 (Homo sapiens)	< 5.05
COc1cc(Nc2ncnc(-n3c(NCc4ccccn4)nc4ccccc43)n2)cc(OCCN2CCOCC2)c1OC [Compound 507]	Zap-70 (Homo sapiens)	< 5.11
COc1cc(Nc2ncnc(N3c4ccccc4CC3C)n2)cc(OC)c1OC (stereo not shown) [Compound 610]	Zap-70 (Homo sapiens)	< 4.94
O=c1[nH]c2ccccc2n1-c1ncnc(Nc2ccccc2Cl)n1 [Compound 484]	Zap-70 (Homo sapiens)	< 4.88
COC(=O)C(c1ccccc1)c1ncnc(Nc2cc(OC)c(OC)c(OC)c2)n1 (stereo not shown) [Compound 1038]	Zap-70 (Homo sapiens)	< 4.96
COc1cc(Nc2ncnc(Nc3ccc4c(cnn4Cc4ccccc4)c3)n2)cc(OC)c1OCCN1CCOCC1 [Compound 559]	Zap-70 (Homo sapiens)	< 5.11
c1ccc(Cn2ncc3cc(Nc4ncnc(Nc5ccc(N6CCCCC6)cc5)n4)ccc32)cc1 [Compound 735]	Zap-70 (Homo sapiens)	5.13 to 5.30

====

Biological target: Kdr (Homo sapiens, UniProt P35968)
Construct: Kinases are expressed as either kinase domains or full length constructs; made in house
Sequence (P35968 20-1356, species assumed): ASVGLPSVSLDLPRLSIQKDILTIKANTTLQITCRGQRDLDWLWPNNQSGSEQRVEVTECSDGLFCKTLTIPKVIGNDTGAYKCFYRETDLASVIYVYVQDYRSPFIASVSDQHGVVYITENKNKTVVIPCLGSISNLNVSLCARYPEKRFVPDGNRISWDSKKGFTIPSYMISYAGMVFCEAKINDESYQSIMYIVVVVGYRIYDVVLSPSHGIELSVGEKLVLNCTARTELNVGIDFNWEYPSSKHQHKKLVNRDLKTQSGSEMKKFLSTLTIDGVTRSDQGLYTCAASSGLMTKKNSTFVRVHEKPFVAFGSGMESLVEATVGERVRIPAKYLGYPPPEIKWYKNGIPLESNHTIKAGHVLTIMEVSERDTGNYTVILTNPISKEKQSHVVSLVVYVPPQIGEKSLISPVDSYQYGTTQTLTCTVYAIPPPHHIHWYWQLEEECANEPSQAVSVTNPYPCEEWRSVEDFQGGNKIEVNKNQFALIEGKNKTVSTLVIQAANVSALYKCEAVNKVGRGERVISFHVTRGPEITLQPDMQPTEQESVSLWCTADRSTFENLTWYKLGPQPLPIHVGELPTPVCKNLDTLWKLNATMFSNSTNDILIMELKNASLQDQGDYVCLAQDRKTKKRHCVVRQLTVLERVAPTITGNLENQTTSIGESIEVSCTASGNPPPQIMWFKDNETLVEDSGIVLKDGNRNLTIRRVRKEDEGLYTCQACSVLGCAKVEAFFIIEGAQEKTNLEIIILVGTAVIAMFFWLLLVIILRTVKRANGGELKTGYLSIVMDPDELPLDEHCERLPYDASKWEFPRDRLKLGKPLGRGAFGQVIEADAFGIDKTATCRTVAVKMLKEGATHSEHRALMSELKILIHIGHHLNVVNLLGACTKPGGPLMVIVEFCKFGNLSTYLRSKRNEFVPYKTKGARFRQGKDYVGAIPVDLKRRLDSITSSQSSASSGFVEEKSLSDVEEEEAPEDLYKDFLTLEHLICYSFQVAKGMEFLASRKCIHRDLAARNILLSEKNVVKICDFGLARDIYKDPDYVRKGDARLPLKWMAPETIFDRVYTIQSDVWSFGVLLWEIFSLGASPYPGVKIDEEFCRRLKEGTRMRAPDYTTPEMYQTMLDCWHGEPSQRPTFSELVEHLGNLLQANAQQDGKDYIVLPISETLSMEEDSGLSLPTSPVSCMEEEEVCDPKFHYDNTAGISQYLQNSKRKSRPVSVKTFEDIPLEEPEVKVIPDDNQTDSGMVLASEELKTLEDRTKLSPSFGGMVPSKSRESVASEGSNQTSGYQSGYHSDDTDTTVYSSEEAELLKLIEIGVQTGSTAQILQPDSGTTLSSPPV
Assay: Kinase inhibition assay (33P transfer), Kdr
Type: biochemical
Conditions: read-out: KDR-1

COMPOUND	IC50
CCCN(CC1CC1)c1ncnc(Nc2cc(OC)c(OC)c(OC)c2)n1 [Compound 626]	1.07 to 6.43 µM
COc1cc(Nc2ncnc(Nc3cc(-c4ccc(C)cc4)n[nH]3)n2)cc(OC)c1OC [Compound 521]	< 0.923 µM
COc1cc(Nc2ncnc(-c3cccnc3NCc3ccc(F)cc3)n2)cc(OC)c1OCCN1CCOCC1 [Compound 564]	< 0.712 µM
COc1cc(Nc2ncnc(-n3c(NCc4ccc(Cl)cc4F)nc4ccccc43)n2)cc(OC)c1OC [Compound 606]	< 0.746 µM
COc1ccc(Nc2ncnc(Nc3cc(-c4ccccc4)n[nH]3)n2)cc1OC [Compound 977]	< 1.03 µM
COc1cc(Nc2ncnc(-n3c(NCc4ccc5c(c4)OCO5)nc4ccccc43)n2)cc(OC)c1OC [Compound 595]	0.758 to 4.55 µM
COc1cc(Nc2ncnc(-c3cccnc3NCc3ccccc3F)n2)cc(OC)c1OC [Compound 1087]	0.865 to 5.19 µM
CC(C)(C)c1cc(Nc2ncnc(Cl)n2)[nH]n1 [Compound 975]	> 17.8 µM
CNS(=O)(=O)Cc1ccc(Nc2ncnc(Nc3ccc4c(cnn4Cc4ccccc4)c3)n2)cc1 [Compound 736]	0.799 to 4.79 µM
COC(=O)n1c(=O)n(-c2ncnc(Nc3cc(OC)c(OC)c(OC)c3)n2)c2ccccc21 [Compound 1032]	0.884 to 5.3 µM
COc1cc(Nc2ncnc(-n3c(NCc4ccc([N+](=O)[O-])cc4)nc4ccccc43)n2)cc(OC)c1OC [Compound 952]	< 0.757 µM
CCN(c1ccc(C)cc1)c1ncnc(Nc2cc(OC)c(OC)c(OC)c2)n1 [Compound 538]	< 1.01 µM
COc1cc(Nc2ncnc(-n3c(NCc4ccccn4)nc4ccccc43)n2)cc(OC)c1OCCN1CCOCC1 [Compound 519]	< 0.685 µM
CN(c1cccc(Cl)c1)c1ncnc(Nc2cccc(CNC(=O)O[C@@H]3CCOC3)c2)n1 [Compound 721]	0.879 to 5.28 µM
COc1cc(Nc2ncnc(Nc3ncnc4[nH]cnc34)n2)cc(OC)c1OC [Compound 696]	> 11.4 µM
COc1cc(Nc2ncnc(Nc3cccc4ncccc34)n2)cc(OC)c1OC [Compound 695]	< 0.989 µM
CN(C)CCNc1ncnc(Nc2ccc3c(cnn3Cc3ccccc3)c2)n1 [Compound 733]	> 11.6 µM
COc1cc(CNc2ncnc(N(C)c3cccc(Cl)c3)n2)cc(OC)c1OC [Compound 747]	> 10.8 µM
